system under test: CB2 receptor (Homo sapiens, UniProt P34972)
Sequence (P34972 whole entry): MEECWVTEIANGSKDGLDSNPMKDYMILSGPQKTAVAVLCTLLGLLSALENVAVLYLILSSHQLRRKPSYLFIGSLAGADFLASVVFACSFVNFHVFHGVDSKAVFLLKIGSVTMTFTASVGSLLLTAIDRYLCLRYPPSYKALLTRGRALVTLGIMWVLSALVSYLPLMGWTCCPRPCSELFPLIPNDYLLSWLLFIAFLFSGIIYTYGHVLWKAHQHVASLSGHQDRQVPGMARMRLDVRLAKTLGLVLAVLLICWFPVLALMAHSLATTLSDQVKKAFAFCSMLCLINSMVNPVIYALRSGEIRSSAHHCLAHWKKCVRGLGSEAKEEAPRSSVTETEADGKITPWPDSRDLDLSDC
assay procedure: [35S]GTPγS binding in human CB2 receptor-expressing CHO cell membranes
Format: biochemical
Design: expressed in transfected cells
run conditions: in words
value type: efficacy in the [35S]GTPγS assay relative to CP-55,940

CCCC(C)(C)c1ccc2c(c1)OC(C)(C)C1CC=C(C)CC21 (stereo not shown) [Compound 3, 3-(1′,1′-Dimethylbutyl)-1-deoxy-Δ^8-THC, reference compound] = highly efficacious
CCCn1c(C)c(C(=O)c2cccc3cc(OC)ccc23)c2ccccc21 = highly efficacious
CCCn1cc(C(=O)c2ccc(C)c3ccccc23)c2ccccc21 = partial agonists
CCCCCn1cc(C(=O)c2c(OC)ccc3ccccc23)c2ccccc21 = partial agonists

Where these numbers come from: patent US20050009903A1
